assay: viability loss with induced miR-34 in A549 – imaging, A549 dox-inducible miR-34, nuclei and caspase counts, primary screen (AID 1347080); settings: A549 miR-34 inducible, Hoechst nuclei count, 48 h; measured here: relative caspase fold change +Dox/-Dox; further: test concentration not given here
fulfilled means recorded fold change is 1 or above; not fulfilled means it is below 1.

[[record]]
compound = "CN1CCC(CN(C)Cc2ccc(-c3nc(-c4ccncc4)cc(=O)[nH]3)cc2)CC1"
answer_label = "fulfilled"

[[record]]
compound = "CCC1OC(=O)C(C)C(OC2C[C@@](C)(OC)C(O)C(C)O2)C(C)C(OC2OC(C)CC(N(C)C)C2O)[C@@](C)(O)CC(C)[C@@H]2NC(COCCOC)OC(C2C)[C@]1(C)O (some centres undefined)"
answer_label = "not fulfilled"

[[record]]
compound = "O=C(O)c1ccc(B(O)O)cc1"
answer_label = "not fulfilled"

[[record]]
compound = "C=C1C(=CC=C2CCC[C@@]3(C)[C@H]2CC[C@H]3C(C)C=CC(C)C(C)C)CC(O)CC1O (some centres undefined)"
answer_label = "not fulfilled"

[[record]]
compound = "CCC1(O)CC2CN(CCc3c([nH]c4ccccc34)[C@@](C(=O)OC)(c3cc4c(cc3OC)N(C)C3[C@]45CCN4CC=C[C@@](CC)([C@@H](OC(C)=O)[C@]3(O)C(=O)OC)[C@H]45)C2)C1 (some centres undefined)"
answer_label = "not fulfilled"

[[record]]
compound = "O=C(Nc1cccc(C(=O)Nc2ccc(S(=O)(=O)O)c3cc(S(=O)(=O)O)cc(S(=O)(=O)O)c23)c1)Nc1cccc(C(=O)Nc2ccc(S(=O)(=O)O)c3cc(S(=O)(=O)O)cc(S(=O)(=O)O)c23)c1"
answer_label = "not fulfilled"

[[record]]
compound = "CC(C)N(CCCNC(=O)Nc1ccc(C(C)(C)C)cc1)CC1OC(n2cc(Br)c3c(N)ncnc32)C(O)C1O (centres undefined)"
answer_label = "fulfilled"

[[record]]
compound = "COc1cc(=O)n(C)c2c(OCC(O)C(C)(C)O)cccc12 (centres undefined)"
answer_label = "fulfilled"

[[record]]
compound = "OB(O)c1ccccc1"
answer_label = "not fulfilled"

[[record]]
compound = "O=C(C=Cc1ccc(O)c(O)c1)NCCc1ccc(O)cc1"
answer_label = "not fulfilled"

[[record]]
compound = "O=C(C=Cc1ccc2ccccc2n1)c1ccncc1"
answer_label = "not fulfilled"

[[record]]
compound = "CC(=O)/C=C1\\C(=O)N(C)c2ccccc21"
answer_label = "fulfilled"

[[record]]
compound = "CCCCC[C@H](O)/C=C/C=C\\CCCCCCCC(=O)O"
answer_label = "fulfilled"

[[record]]
compound = "CC(=O)NC1C(N=C(N)N)C=C(C(=O)O)O[C@H]1C(O)C(O)CO (some centres undefined)"
answer_label = "not fulfilled"

[[record]]
compound = "CN(C)C(CCOc1cccc2ccccc12)c1ccccc1 (centres undefined)"
answer_label = "fulfilled"

[[record]]
compound = "Cc1nc(NC(=O)N2CCCC2C(N)=O)sc1-c1csc(C(C)(C)C)n1 (centres undefined)"
answer_label = "not fulfilled"

[[record]]
compound = "Nc1nc(CC(=O)Nc2ccc(CCNCC(O)c3ccccc3)cc2)cs1 (centres undefined)"
answer_label = "fulfilled"

[[record]]
compound = "COc1ccc(CNc2nc(N3CCCC3CO)ncc2C(=O)NCc2ncccn2)cc1Cl (centres undefined)"
answer_label = "fulfilled"


---

experiment: viability loss with induced miR-34 in A549 – imaging, A549 dox-inducible miR-34, nuclei and caspase counts, primary screen (AID 1347080); details: A549 miR-34 inducible, Hoechst nuclei count, 48 h; measured here: total cells without miR-34 induction; further: test concentration not given here
Satisfied means recorded cell count is 9000 or above; Not satisfied means it is below 9000.

[[record]]
compound = "CN1CCC(NC(=O)c2cc(-c3c(O)cc(O)cc3Oc3ccc([N+](=O)[O-])cc3)on2)CC1"
answer_label = "Not satisfied"

[[record]]
compound = "NC[C@@H]1O[C@H](c2ccccc2)Cc2c1ccc(O)c2O"
answer_label = "Satisfied"

[[record]]
compound = "O=C1Nc2ccc(I)cc2C1=Cc1cc(Br)c(O)c(Br)c1"
answer_label = "Not satisfied"

[[record]]
compound = "CN1CC(=O)N2C(Cc3c([nH]c4ccccc34)C2c2ccc3c(c2)OCO3)C1=O (centres undefined)"
answer_label = "Not satisfied"

[[record]]
compound = "NC(Cc1c[nH]c2ccc(O)cc12)C(=O)O (centres undefined)"
answer_label = "Satisfied"

[[record]]
compound = "C=CS(=O)(=O)NC1CCN(C(=O)CNc2cc(I)c(Cl)cc2OC)CC1"
answer_label = "Not satisfied"

[[record]]
compound = "N#C/C(=C\\c1ccc(O)c(O)c1)C(=O)NCCCNC(=O)/C(C#N)=C/c1ccc(O)c(O)c1"
answer_label = "Satisfied"

[[record]]
compound = "C=CCN1CCc2c(cc(O)c(O)c2Cl)C(c2ccccc2)C1 (centres undefined)"
answer_label = "Not satisfied"

[[record]]
compound = "CO[C@H]1C[C@H](O[C@H]2[C@H](C)[C@@H](OC3O[C@H](C)C[C@H](N(C)C)[C@H]3OC(C)=O)[C@@H](C)C[C@]3(CO3)C(=O)[C@H](C)[C@@H](OC(C)=O)[C@@H](C)[C@@H](C)OC(=O)[C@@H]2C)O[C@@H](C)[C@@H]1OC(C)=O (some centres undefined)"
answer_label = "Satisfied"

[[record]]
compound = "CC(C)(C)OC(=O)NC1CCCCCC=CC2C[C@@]2(C(=O)NS(=O)(=O)C2CC2)NC(=O)C2CC(OC(=O)N3Cc4cccc(F)c4C3)CN2C1=O (some centres undefined)"
answer_label = "Not satisfied"

[[record]]
compound = "Cc1cc(C=Cc2ccc3cc(N(C)C)ccc3[n+]2C)c(C)n1-c1ccccc1"
answer_label = "Not satisfied"

[[record]]
compound = "C[C@]12CC[C@H]3c4ccc(O)cc4CC[C@H]3[C@@H]1CCC2OC(=O)CCC1CCCC1 (some centres undefined)"
answer_label = "Not satisfied"

[[record]]
compound = "NCCS(=O)O"
answer_label = "Satisfied"

[[record]]
compound = "CC(=O)Nc1c(I)c(C(=O)N[C@H]2C(O)O[C@H](CO)[C@@H](O)[C@@H]2O)c(I)c(N(C)C(C)=O)c1I (some centres undefined)"
answer_label = "Satisfied"

[[record]]
compound = "COc1cc(C=Cc2ccc(O)cc2)cc(OC)c1"
answer_label = "Not satisfied"


---

Form field: cell count (one value per entry).
experiment: viability loss with induced miR-34 in A549 – imaging, A549 dox-inducible miR-34, nuclei and caspase counts, primary screen (AID 1347080); settings: A549 miR-34 inducible, Hoechst nuclei count, 48 h; measured here: total cells without miR-34 induction; further: test concentration not given here
*1 amine or outer side, *2 acyl side, *3 side chain or, on linkers, in order; H or OH if unused. Where a SMILES comes first, the peptide text is derived from it. Bridges are numbered along the chain shown (N, C = ends). [ ]: non-standard residue; d: D form. The star is where a group is joined. ξ: configuration not given here. pTerphenylCO(4''-OnC5H11) = CCCCCOc1ccc(-c2ccc(-c3ccc(C(=O)*)cc3)cc2)cc1; ξOrn(4,5-diOH) = O=C(C(CC(O)C(O)N[*:3])N[*:1])[*:2]; ξhTyr(βξ-OH,γξ-OH) = NC(C(=O)O)C(O)C(O)c1ccc(O)cc1; ξPro(3ξ-OH,4ξ-Me) = CC1CNC(C(=O)O)C1O; Hyp = O=C(O)[CH]1C[CH](O)CN1
QUANTITY: cell count

[[record]]
compound = "COc1cccc2ccc(-c3coc4ccccc4c3=O)nc12"
reading = 8170

[[record]]
compound = "CNC(C)C(=O)NC(C(=O)N1CCCC1C(=O)Nc1snnc1-c1ccccc1)C1CCCCC1 (stereo not drawn)"
reading = 8510

[[record]]
compound = "CCOC(=O)c1c(C)nn(-c2ccc(N)cc2)c1C"
reading = 9570

[[record]]
compound = "Nc1ccc(Sc2ccc(N3C(=O)c4ccc(N)cc4C3=O)cc2)cc1"
reading = 10000

[[record]]
compound = "Cc1c(CNC(=O)C(=O)c2c(-c3ccccc3)cc3ccccn23)cnn1C"
reading = 9330

[[record]]
compound = "CCCCCOc1ccc(-c2ccc(-c3ccc(C(=O)NC4CC(O)C(O)NC(=O)C5C(O)C(C)CN5C(=O)C(C(C)O)NC(=O)C(C(O)C(O)c5ccc(O)cc5)NC(=O)C5CC(O)CN5C(=O)C(C(C)O)NC4=O)cc3)cc2)cc1 (stereo not drawn) ({pTerphenylCO(4''-OnC5H11)}-[ξOrn(4,5-diOH)]T[Hyp][ξhTyr(βξ-OH,γξ-OH)]T[ξPro(3ξ-OH,4ξ-Me)]; lactam 1-C; configuration not given here)"
reading = 5810

[[record]]
compound = "Nc1ccc(-c2ccc3ccccc3n2)cc1"
reading = 6930

[[record]]
compound = "CC(=O)NCC(=O)N1CCN(Cc2ccc3c(c2)OCO3)C(=O)C1"
reading = 9790

[[record]]
compound = "CCC(=O)OCC(=O)[C@@]1(OC(=O)CC)[C@@H](C)C[C@H]2[C@@H]3CCC4=CC(=O)C=C[C@]4(C)C3(F)[C@@H](O)C[C@@]21C (stereo partly drawn)"
reading = 7940

[[record]]
compound = "COc1cccc(OC)c1OCCNCC1CSc2ccccc2O1 (stereo not drawn)"
reading = 7340

[[record]]
compound = "CC(C)(O)C1CC[C@@](C)([C@@H]2C(O)C[C@@]3(C)[C@@H]4CC(OC5OC(CO)C(O)C(O)C5O)[C@H]5C(C)(C)C(OC6OCC(O)C(O)C6O)CC[C@@]56C[C@]46CC[C@]23C)O1 (stereo partly drawn)"
reading = 9940

[[record]]
compound = "Cc1nc(NC(=O)N2CCCC2C(N)=O)sc1-c1csc(C(C)(C)C)n1 (stereo not drawn)"
reading = 7100

[[record]]
compound = "CCSc1ccc2c(c1)N(CCCN1CCN(C)CC1)c1ccccc1S2"
reading = 7860

[[record]]
compound = "O=c1ccn(C2OC(CO)C(O)C2O)c(=O)[nH]1 (stereo not drawn)"
reading = 9580

[[record]]
compound = "O=S(=O)(O)CCNC1CCCCC1"
reading = 10200

[[record]]
compound = "CC1(C)S[C@@H]2[C@H](NC(=O)[C@H](NC(=O)N3CCNC3=O)c3ccccc3)C(=O)N2C1C(=O)O (stereo partly drawn)"
reading = 13600

[[record]]
compound = "CCc1nc(NC(=O)NCCc2nc(-c3ccc(C)cc3)no2)nn1C"
reading = 8670

[[record]]
compound = "O=C(CCSCc1ccco1)NNC(=O)N1Cc2ccccc2Oc2ccc(Cl)cc21"
reading = 8100

[[record]]
compound = "COc1cc2c(cc1-c1c(C)noc1C)ncc1[nH]c(=O)n(C(C)c3ccccn3)c12 (stereo not drawn)"
reading = 8030

[[record]]
compound = "O=c1cc(-c2ccccc2)oc2ccccc12"
reading = 8370

[[record]]
compound = "CC(C)CC(=O)N[C@H](C(=O)NC(C(=O)NC(CC(C)C)[C@@H](O)CC(=O)N[C@@H](C)C(=O)N[C@@H](CC(C)C)[C@@H](O)CC(=O)O)C(C)C)C(C)C (stereo partly drawn)"
reading = 13300

[[record]]
compound = "CC1COC(Nc2ccc3ncnc(Nc4ccc(OCc5nccs5)c(Cl)c4)c3c2)=N1 (stereo not drawn)"
reading = 8260

[[record]]
compound = "O=C(COc1ccc(C(=O)c2ccccc2)cc1)NC1CCN(Cc2ccccc2)CC1"
reading = 7520

[[record]]
compound = "COc1ccc2cc1Oc1ccc(cc1)CC1c3cc(c(OC)cc3CCN1C)Oc1c(OC)c(OC)cc3c1C(C2)N(C)CC3 (stereo not drawn)"
reading = 7260

[[record]]
compound = "O=C1NC(=O)C(=Cc2ccc(-c3ccc(F)cc3O)o2)S1"
reading = 9530

[[record]]
compound = "NS(=O)(=O)c1ccc(NC(=O)Nc2ccc(F)cc2)cc1"
reading = 8360

[[record]]
compound = "Oc1cccc(-c2nc(N3CCOCC3)c3sccc3n2)c1"
reading = 2750

[[record]]
compound = "CCn1nccc1NC(=O)Cn1cc(-c2ccc(C(=O)N3CCCC3)cn2)cn1"
reading = 9430

[[record]]
compound = "COC(=O)CNC(=O)C(=O)OC"
reading = 6190

[[record]]
compound = "CC#CCn1c(N2CCCC(N)C2)nc2c1c(=O)n(Cc1nc(C)c3ccccc3n1)c(=O)n2C (stereo not drawn)"
reading = 10900

[[record]]
compound = "CN=C(N)NCCCC(N)C(=O)O (stereo not drawn)"
reading = 9990

[[record]]
compound = "COc1cc(=O)n(C)c2c(OCC(O)C(C)(C)O)cccc12 (stereo not drawn)"
reading = 10400

[[record]]
compound = "CC(=O)N[C@@H](Cc1c[nH]c2ccccc12)C(=O)OCc1cc(C(F)(F)F)cc(C(F)(F)F)c1"
reading = 9690

[[record]]
compound = "Cc1ccc(-n2cc(-c3nc4c(cnn4Cc4cccnc4)[nH]3)cn2)cc1"
reading = 8340

[[record]]
compound = "CC1(C)S[C@H]2C(NC(=O)C(N)c3ccc(O)cc3)C(=O)N2C1C(=O)O (stereo partly drawn)"
reading = 8150

[[record]]
compound = "COc1ccc(/C=C2\\COc3ccc(C)cc3C2=O)cc1O"
reading = 2660

[[record]]
compound = "COc1cc(N)c(Cl)cc1C(=O)N[C@H]1CCN(CCCOc2ccc(F)cc2)C[C@H]1OC"
reading = 8350

[[record]]
compound = "CC1CCO[C@H]2Cn3cc(C(=O)NCc4ccc(F)cc4F)c(=O)c(O)c3C(=O)N12 (stereo partly drawn)"
reading = 8370

